System: INS-1E rat beta cells, no cytokines, CellTiter-Glo ATP, 48 h
experimental details: cytokine-free beta-cell viability effect – INS-1E rat cells, ATP luminescence, cherry pick, counter-screen for beta-cell apoptosis protection project, dose response (AID 463229)
Each record here notes measured AC50.
quantity kind: AC50

# molecule, reading
records = [
    ("Cc1ccc(N(CC(=O)Nc2cc(C)cc(C)c2)S(=O)(=O)c2c(C)noc2C)cc1", "14.5 µM"),
    ("c1ccc(-c2cc(-c3ccccc3)[n+](-c3ccccc3)c(-c3ccccc3)c2)cc1", "2.65 µM"),
    ("c1ccc(-c2nnc(-c3ccccn3)nc2NC2CCCCC2)cc1", "3.52 µM"),
    ("O=C(N/N=C/c1ccccc1O)/C(=C/c1ccccc1)CCO", "7.67 µM"),
    ("Cc1ccc(C(=O)N/C(=C\\c2ccc(-c3ccc(Br)cc3)o2)C(=O)NCCCN(C)C)cc1", "7.87 µM"),
    ("CCN(CC)S(=O)(=O)c1ccc(NC(=O)Nc2cccc(C(F)(F)F)c2)cc1", "8.02 µM"),
    ("O=C(N/N=C/c1sc(N2CCOCC2)nc1-c1ccccc1)c1cccc(S(=O)(=O)N2CCCC2)c1", "2.25 µM"),
    ("Cc1ccc(NC(=O)Cn2c(O)c(N=NC(=O)c3cc4ccccc4cc3O)c3ccccc32)cc1", "8.15 µM"),
    ("CC(=O)Nc1sc2c(c1-c1nc3ccccc3s1)CCN(C(C)C)C2", "5.11 µM"),
    ("O=C(Nc1ccc(Br)c(C(F)(F)F)c1)c1ccc(C(F)(F)F)cc1", "7.74 µM"),
    ("O=C(Nc1ccc(C(F)(F)F)cc1)C1CCN(S(=O)(=O)c2ccc(N3CCCC3=O)cc2)CC1", "4.37 µM"),
    ("Cc1cc(/C=N/n2cnnc2)c(C)n1-c1ccc(OCc2ccc(Cl)cc2)cc1", "1.26 µM"),
    ("O=C(c1cc(-c2cccc(O)c2)on1)N1CCN(C(c2ccccc2)c2ccccc2)CC1", "14.4 µM"),
    ("O=C(Nc1ccc(N2CCN(Cc3ccccc3Cl)CC2)cc1)c1cccnc1", "5.98 µM"),
    ("COc1ccc(-c2nn(-c3ccccc3)cc2/C=N/Nc2ccc3ccccc3n2)cc1OC", "7.19 µM"),
    ("CC(C)COCc1ccc(O)c2ncccc12", "8.01 µM"),
    ("CCCCCCCCCCOC(=O)Cn1c(COc2ccccc2OC)[n+](C)c2ccccc21", "1.09 µM"),
    ("CCCCCCCCCCOC(=O)Cn1c(COc2ccc(C)cc2)[n+](C)c2ccccc21", "4 µM"),
    ("Cc1cccc(-n2c(C)cc(/C=N/n3cnnc3)c2C)c1", "14.5 µM"),
    ("N#Cc1ccc(NC(=O)Nc2ccc(Cl)cc2)cc1", "6.57 µM"),
    ("CC1=[N+](C)c2ccc3ccccc3c2C1(C)C", "14.6 µM"),
    ("O=[N+]([O-])c1cnc(Sc2ccncn2)s1", "5.75 µM"),
    ("CC1CCc2c(sc3nc(C(C)(C)C)nc(N4CCN(C(=O)CCl)CC4)c23)C1 (centres undefined)", "7.59 µM"),
    ("COc1ccc(C(NC(C)=O)c2cc(Cl)c3cccnc3c2O)cc1 (centres undefined)", "7.34 µM"),
]
